# Test system: TGF-b induced Endothelin-1 production
# PROCEDURE_TEXT: ET-1 assay: inhibitory effect on TGF-b induced endothelin-1 production
# Type: cell-based
# REPORTED_CONDITIONS: Homo sapiens, Fibroblast; fibroblasts, stimulant (TGFb, serum, LPA etc), ET-1 in media by ELISA, 4-parameter fit
pEC50: −log10 of the molar value.
pEC50 values for the molecules below.

Worked cases, answers included:
Cc1cc(=O)n(-c2ccc(OC(F)(F)F)cc2)cc1-c1cccc2[nH]c(=O)oc12; < 3.70
O=c1c2scnc2c(-c2cn[nH]c2)cn1-c1ccc(OC(F)(F)F)cc1; > 4.30
Cc1ccc(=O)n(-c2ccc(OC(F)(F)F)cc2)n1; > 4.30
CNC(=O)c1cccc(-n2cc(-c3ccc(F)cc3)c(C)cc2=O)c1; 3.70 to 4.30

Which pEC50 value belongs to Cn1cc(-c2cn(-c3ccc(OC(F)(F)F)cc3)c(=O)c3nn(CCF)nc23)cn1 ?
> 4.30

Which pEC50 value belongs to COCCn1ccc2c(-c3cnn(C)c3)cn(-c3ccc(OC(F)(F)F)cc3)c(=O)c21 ?
> 4.30

Which pEC50 value belongs to COc1ccc(-c2ccc(=O)n(-c3cncnc3)c2)cc1 ?
< 3.70

Which pEC50 value belongs to O=c1ccc(-c2ccccc2)cn1-c1ccncc1 ?
< 3.70

Which pEC50 value belongs to CCOc1ccc(-n2cc(-c3cnn(C)c3)c(OC3CCOCC3)cc2=O)c(C)c1 ?
3.70 to 4.30
